meta.source: patent US20120101110A1

Molecular target: human orexin 1 receptors (Homo sapiens, UniProt O43613)
Sequence (O43613 1-425): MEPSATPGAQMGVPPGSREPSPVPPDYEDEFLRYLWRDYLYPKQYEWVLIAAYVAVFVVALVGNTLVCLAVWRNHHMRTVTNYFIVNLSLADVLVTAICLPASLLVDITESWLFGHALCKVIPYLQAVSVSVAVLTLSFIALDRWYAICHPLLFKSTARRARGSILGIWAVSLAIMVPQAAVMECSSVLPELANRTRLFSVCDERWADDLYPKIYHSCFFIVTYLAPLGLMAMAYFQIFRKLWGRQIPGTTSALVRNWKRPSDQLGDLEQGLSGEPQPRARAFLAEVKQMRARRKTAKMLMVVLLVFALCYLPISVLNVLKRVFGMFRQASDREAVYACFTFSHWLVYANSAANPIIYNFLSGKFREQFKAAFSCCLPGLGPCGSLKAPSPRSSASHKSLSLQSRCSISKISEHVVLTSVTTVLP
Collected Kd values appear next to each entry.

{"columns": ["entry_smiles", "Kd"],
 "data": [
  ["Cc1cc(C)nc(N2CCC3(CCCN(Cc4ccccc4-n4nccn4)C3=O)CC2)n1", "> 10 µM"],
  ["Cc1cc(C)nc(N2CCC3(CCCN(Cc4cccc(-c5ncccn5)c4)C3=O)CC2)c1", "> 10 µM"],
  ["N#Cc1cccc(N2CCC3(CCCN(Cc4c[nH]c5ccccc45)C3=O)CC2)n1", "> 10 µM"],
  ["Cc1cc(C#N)nc(N2CCC3(CCCN(Cc4c[nH]c5ccccc45)C3=O)CC2)n1", "> 10 µM"]
]}

Now, please, on to the next molecule.
# Kd of Cc1cc(C#N)nc(N2CCC3(CCCN(Cc4cccc(-c5ncc(C)o5)c4)C3=O)CC2)n1 = > 10 µM

* * *

Collected inhibition at 10 µM values appear next to each entry.
Biological target: human orexin 1 receptors (Homo sapiens)
Experiment: Calcium accumulation in cells (FLIPR), hOx1R
Conditions: read-out: FLIPR hOx1R % inhibition value
Form entry: value (%) — number only.

# inhibition at 10 µM of Cc1ccnc(N2CCC3(CCCC(=O)N3Cc3cccc(-n4nccn4)c3)CC2)n1 [Example 94] = 36

* * *

Collected inhibition at 10 µM values appear next to each entry.
Molecular target: human orexin 1 receptors (Homo sapiens, UniProt O43613)
Assay: Calcium accumulation in cells (FLIPR), hOx1R
Settings: read-out: FLIPR hOx1R % inhibition value
Form entry: value (%) — number only.

Recorded inhibition at 10 µM, per entry:
{"columns": ["entry_smiles", "measured_endpoint", "recorded_number"],
 "data": [
  ["COc1cncc(N2CCC3(CCCC(=O)N3Cc3c[nH]c4ccccc34)CC2)n1", "inhibition at 10 µM", 40],
  ["N#Cc1ccc(N2CCC3(CCCC(=O)N3Cc3cccc4[nH]ccc34)CC2)nc1", "inhibition at 10 µM", 13]
]}

# inhibition at 10 µM of Cc1cncc(N2CCC3(CCCN(Cc4c[nH]c5ccccc45)C3=O)CC2)c1 = 31

* * *

Collected inhibition at 10 µM values appear next to each entry.
Molecular target: human orexin 1 receptors (Homo sapiens, UniProt O43613)
Sequence (O43613 1-425): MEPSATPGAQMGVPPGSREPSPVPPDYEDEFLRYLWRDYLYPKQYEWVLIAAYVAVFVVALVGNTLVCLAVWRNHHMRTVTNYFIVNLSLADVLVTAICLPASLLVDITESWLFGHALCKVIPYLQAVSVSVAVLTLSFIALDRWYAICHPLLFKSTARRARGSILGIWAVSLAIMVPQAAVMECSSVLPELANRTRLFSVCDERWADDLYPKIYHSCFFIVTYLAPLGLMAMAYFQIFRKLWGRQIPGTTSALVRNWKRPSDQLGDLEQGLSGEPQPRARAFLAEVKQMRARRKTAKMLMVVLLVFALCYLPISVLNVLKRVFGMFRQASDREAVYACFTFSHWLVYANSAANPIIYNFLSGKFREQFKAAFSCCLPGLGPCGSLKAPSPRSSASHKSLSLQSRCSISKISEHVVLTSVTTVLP
Experiment: Calcium accumulation in cells (FLIPR), hOx1R
Conditions: read-out: FLIPR hOx1R % inhibition value

Recorded inhibition at 10 µM, per entry:
{"columns": ["entry_smiles", "inhibition at 10 µM"],
 "data": [
  ["Cc1ccnc(N2CCC3(CCCC(=O)N3Cc3ccc(-c4ncccn4)cc3)CC2)n1", "< 10%"],
  ["N#Cc1ccnc(N2CCC3(CCCN(Cc4ccccc4-n4nccn4)C3=O)CC2)c1", "< 10%"]
]}

Now, please, on to the next compound.
# inhibition at 10 µM of N#Cc1cccc(N2CCC3(CCCN(Cc4ccccc4-n4nccn4)C3=O)CC2)n1 = < 10%
